Cited source: paper PMC4335062

Biological target: ATF6B (Homo sapiens)
Sequence (Q99941 325-388 limits assumed): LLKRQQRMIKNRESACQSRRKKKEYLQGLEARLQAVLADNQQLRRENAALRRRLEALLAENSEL
Assay: Direct-binding FRET assay
Design: made in house
Conditions: Kd, 4°C; C-terminal fluorescein design as donor, TAMRA target titrated
Where no end group is shown, it is not given here.
endpoint_label: Kd

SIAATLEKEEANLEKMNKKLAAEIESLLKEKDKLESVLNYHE [JUN-d1]; 200 to 1000 nM

* * *

Biological target: ATF5 (Homo sapiens, UniProt Q9Y2D1)
Construct: made in house
Sequence (Q9Y2D1 208-271 limits assumed): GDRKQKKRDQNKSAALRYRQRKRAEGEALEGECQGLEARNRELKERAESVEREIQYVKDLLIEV
Experiment: Direct-binding FRET assay
Details: 23°C; C-terminal rhodamine design; repeat 2; read-out: Kd
pKd: −log10 of the molar value. Where no end group is shown, it is not given here.
endpoint_label: pKd

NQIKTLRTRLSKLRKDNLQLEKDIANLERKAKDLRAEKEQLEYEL [ATF4-d1]; < 5.30

* * *

Molecular target: XBP1/CREBZF heterodimer (Homo sapiens, UniProt P17861)
Construct: made in house
Assay: Competition FRET assay
Assay type: binding
Conditions: 23°C; 10 nM XBP1 (fluorescein) with 50 nM CREBZF (TAMRA); unlabeled design
Experimental: In the competition form of the assay, a FRET pair was made by mixing 10 nM of the donor-labeled peptide with a specified concentration of the acceptor-labeled peptide in 1 mM TCEP-HCl, and 20 μL of this solution was added to the wells after unlabeled design was titrated in 2-fold dilutions over the wells to a final concentration ranging from 0 to 2.5 μM. […] Samples were equilibrated for one hour before reading the plates; repeated reading of the plates over several hours gave no change in signal. […]
Where no end group is shown, it is not given here.
endpoint_label: IC50 (nM)

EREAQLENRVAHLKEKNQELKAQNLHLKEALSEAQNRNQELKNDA [XBP1-d1]; 136

* * *

Target: JUN (Homo sapiens, UniProt P05412)
Sequence (P05412 252-315 limits assumed): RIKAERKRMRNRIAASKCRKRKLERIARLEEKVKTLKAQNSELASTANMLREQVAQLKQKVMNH
Assay: Direct-binding FRET assay
Parameters: made in house
Settings: 37°C; N-terminal rhodamine design; mean or single; read-out: Kd
Where no end group is shown, it is not given here.
Measured Kd by item
endpoint_label: Kd

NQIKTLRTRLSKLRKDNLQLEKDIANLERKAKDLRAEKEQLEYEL [ATF4-d1]; > 5 µM
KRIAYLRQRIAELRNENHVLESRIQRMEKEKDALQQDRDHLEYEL [ATF5-d1]; > 5 µM
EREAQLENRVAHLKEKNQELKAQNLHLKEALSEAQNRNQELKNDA [XBP1-d1]; > 1 µM

* * *

Target: NFE2L2 (Homo sapiens, UniProt Q16236)
Construct: made in house
Sequence (Q16236 497-560 limits assumed): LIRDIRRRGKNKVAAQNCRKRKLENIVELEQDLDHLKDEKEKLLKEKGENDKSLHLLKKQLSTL
Test: Direct-binding FRET assay
Details: 23°C; C-terminal rhodamine design; repeat 2; read-out: Kd
Where no end group is shown, it is not given here.
endpoint_label: Kd

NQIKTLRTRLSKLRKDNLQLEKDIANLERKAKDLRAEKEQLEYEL [ATF4-d1]; > 5 µM

* * *

Biological target: NFE2L1 (Homo sapiens)
Sequence (Q14494 654-717 limits assumed): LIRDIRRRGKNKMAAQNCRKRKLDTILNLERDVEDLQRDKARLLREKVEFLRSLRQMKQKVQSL
Assay: Direct-binding FRET assay
Parameters: made in house
Conditions: 37°C; C-terminal fluorescein design as donor, TAMRA target titrated; read-out: Kd
Where no end group is shown, it is not given here.
endpoint_label: Kd

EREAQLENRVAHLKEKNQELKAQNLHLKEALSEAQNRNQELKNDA [XBP1-d1]; > 1000 nM
